Entries and their EC50
- experimental system: S. pyogenes SKKanGAS, kanamycin survival, BacTiterGlo, 6 h
- assay info: S. pyogenes SKKanGAS kanamycin growth inhibitors – SKKanGAS strain, luminescence, dose confirmation, streptokinase promoter inhibitor project, dose response (AID 1902);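 note: lower survival reflects blocked streptokinase promoter driving kanamycin resistance gene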

Known EC50 results, listed for orientation:
molecule: O=C(CCn1cnc(-c2ccccc2)c1-c1ccccc1)N/N=C/c1ccccc1O
EC50: 522 nM

molecule: CCCCN(C)S(=O)(=O)c1ccc(C(=O)Nc2nnc(-c3cccs3)o2)cc1
EC50: 941 nM

molecule: COc1ccccc1-c1cn[nH]c1-c1ccc(OCc2ccc(F)cc2)cc1O
EC50: 10800 nM

molecule: CC(/C=C1\SC(=S)N(NS(=O)(=O)c2ccccc2)C1=O)=C\c1ccccc1
EC50: 5380 nM

molecule: CN(Cc1cnc2nc(N)nc(N)c2n1)c1ccc(C(=O)N[C@@H](CCC(=O)O)C(=O)O)cc1
EC50: 610 nM

Report EC50 for CC(C)(C)c1ccc(OCC(=O)Nc2ccc(C(=O)Nc3ccccc3C(=O)O)cc2)cc1 please. 1540 nM

Same for COc1ccc(-c2cc(C3CCN(Cc4cccc(C(F)(F)F)c4)CC3)[nH]n2)cc1 9260 nM

Same for COc1cc(/C=N/Nc2nc(Nc3ccccc3)nc(-n3nc(C)cc3C)n2)cc(OC)c1OC 3140 nM

Same for COc1cc(-c2c(C#N)c(N)nc3c2c(C)nn3-c2ccc(C)c(C)c2)cc(OC)c1OC 4530 nM

Same for CN1c2ccccc2C(C)(C)C12C=Nc1c(ccc3ccccc13)O2 (configuration not stated) 2160 nM

Same for C=CCn1c(N)c(C(=O)Nc2cccc(C)c2)c2nc3ccccc3nc21 3400 nM

Same for CCCc1ccc(Oc2cn[nH]c2-c2ccc(O)c(C)c2O)cc1 1800 nM
